Test system: E. cloacae
Assay: AK assay 384-well format, Prestwick library screening
Format: cell-based, Enterobacter cloacae
Conditions: Enterobacter cloacae, 3 h; planktonic E. cloacae; 50 μM final drug concentration; 384-well; cutoff for positive-scoring molecules 3-fold increase; read-out: AK-based Prestwick Library Screening Results: E. cloacae (increase in extracellular AK activity)
Where a name gives a salt, the structure may show the parent alone.
quantity-measured: fold induction at 50 µM
API doc: respond with a numeric literal and nothing else, no unit.

Exam item: Item CC(C)[C@@]1(NC(=O)[C@@H]2C[C@@H]3c4cccc5[nH]cc(c45)C[C@H]3N(C)C2)O[C@@]2(O)[C@@H]3CCCN3C(=O)[C@H](Cc3ccccc3)N2C1=O [Dihydroergocristine mesylate] with E. cloacae - fold induction at 50 µM?
Marked response: 0.6

Exam item: Item: CC(=O)OCC(=O)[C@@]1(O)CC[C@H]2[C@@H]3CCC4=CC(=O)CC[C@]4(C)[C@@]3(F)[C@@H](O)C[C@@]21C [Fludrocortisone acetate] Test system: E. cloacae Read-out: fold induction at 50 µM Value: ?
Marked response: 1.4

Exam item: What reported fold induction at 50 µM corresponds to CC#C[C@]1(O)CC[C@H]2[C@@H]3CCC4=CC(=O)CCC4=C3[C@@H](c3ccc(N(C)C)cc3)C[C@@]21C on E. cloacae?
Marked response: 1.4

Exam item: Could you share what fold induction at 50 µM was measured for CCN(CC)CCNC(=O)c1cc(Cl)c(N)cc1OC [Metoclopramide monohydrochloride] , tested on E. cloacae?
Marked response: 1.6

Exam item: Hello, I am looking for reported fold induction at 50 µM with E. cloacae for CCn1cc(C(=O)O)c(=O)c2cc(F)c(N3CCNCC3)cc21 . Could you help?
Marked response: 3.1

Exam item: Observed fold induction at 50 µM on E. cloacae for CC1COc2c(N3CCN(C)CC3)c(F)cc3c(=O)c(C(=O)O)cn1c23 (stereo not shown) , please.
Marked response: 4.1

Exam item: Please state recorded fold induction at 50 µM (tested on E. cloacae) of Clc1ccc(Cn2c(CN3CCCC3)nc3ccccc32)cc1 [Clemizole hydrochloride]
Marked response: 1.4

* * *

Answer each item with its documented fold induction at 50 µM.
System: A. baumannii strain 98-37-09
Test: AK assay 384-well format, Prestwick library screening
Assay type: cell-based, Acinetobacter baumannii
Conditions: Acinetobacter baumannii, 983709, 3 h; 50 μM final drug concentration; planktonic; cutoff for positive-scoring molecules 3-fold increase; read-out: AK-based Prestwick Library Screening Results, A. baumannii (fold increase in extracellular AK activity)
Structures can show the parent of a compound that is named as a salt.

Exam item: What value of fold induction at 50 µM on A. baumannii strain 98-37-09 does CCn1cc(C(=O)O)c(=O)c2cnc(N3CCCC3)nc21 have?
Marked response: 0.5

Exam item: GET /values?readout=fold induction at 50 µM&system=A. baumannii strain 98-37-09&item= COc1cc(NS(=O)(=O)c2ccc(N)cc2)nc(OC)n1
Marked response: 0.9

Exam item: Notebook entry, A. baumannii strain 98-37-09 assay: fold induction at 50 µM of CCOc1ccc2c(c1)C(C)=CC(C)(C)N2 = ?
Marked response: 0.9

Exam item: Given the entry NC[C@H]1O[C@H](O[C@H]2[C@H](O[C@@H]3O[C@H](CO)[C@@H](O)[C@H]3O)[C@@H](O)[C@H](N)C[C@@H]2N)[C@H](N)[C@@H](O)[C@@H]1O [Ribostamycin sulfate salt] , what fold induction at 50 µM was observed with A. baumannii strain 98-37-09?
Marked response: 0.8

Provenance of the data: patent US10004701B2
